This collection of values is drawn from patent US20250223358A1.

Molecular target: human CD3 (human, UniProt P07766 23-207; P04234 22-171; P09693 23-182)
Sequence (P07766 23-207, chain 1 of 3): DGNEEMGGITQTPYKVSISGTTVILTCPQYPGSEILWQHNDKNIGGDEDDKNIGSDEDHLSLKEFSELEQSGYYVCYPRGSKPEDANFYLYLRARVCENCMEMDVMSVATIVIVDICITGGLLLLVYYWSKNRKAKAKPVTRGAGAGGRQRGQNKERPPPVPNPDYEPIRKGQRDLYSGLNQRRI
Sequence (P04234 22-171, chain 2 of 3): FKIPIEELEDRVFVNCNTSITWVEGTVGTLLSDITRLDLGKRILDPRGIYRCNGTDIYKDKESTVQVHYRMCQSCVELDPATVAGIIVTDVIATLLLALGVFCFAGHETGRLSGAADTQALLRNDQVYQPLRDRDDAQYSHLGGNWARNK
Sequence (P09693 23-182, chain 3 of 3): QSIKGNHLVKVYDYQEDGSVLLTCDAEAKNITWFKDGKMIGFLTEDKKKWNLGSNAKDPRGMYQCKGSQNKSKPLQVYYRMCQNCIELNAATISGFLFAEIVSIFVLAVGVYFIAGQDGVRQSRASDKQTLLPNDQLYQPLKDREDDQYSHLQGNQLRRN
Assay: cell-based or functional assay
Listed here are binders together with their documented EC50 (Jurkat-NFAT-luciferase activation).
Respond with the bare value in nM.

Study these solved cases before continuing.
• BMK-B219 (antibody, V domains shown, benchmark anti-CD3 antibody; also called anti-CD3 antibody developed by JNJ (Johnson & Johnson)) VH: EVQLVESGGGLVQPGGSLRLSCAASGFTFNTYAMNWVRQAPGKGLEWVARIRSKYNNYATYYAASVKGRFTISRDDSKNSLYLQMNSLKTEDTAVYYCARHGNFGNSYVSWFAYWGQGTLVTVSS VL: QTVVTQEPSLTVSPGGTVTLTCRSSTGAVTTSNYANWVQQKPGQAPRGLIGGTNKRAPGTPARFSGSLLGGKAALTLSGVQPEDEAEYYCALWYSNLWVFGGGTKLTVL = 68.4
• ch147C6F3 (antibody, V domains shown) VH: QVQLQQPGTELVKPGASVKLSCKASGYTFDSYWMHWVKQRPGQGLEWIGNLNPSNGEINYNEKFKHKATLTVDKSSSTAYMQLSSLTSEDSAVYYCSRDRSSQYYFDYWGQGTTLTVSS VL: DIVMSQSPSSLAVSAGEKVTLSCKSSQSLLNSRTRKNYLAWYQQKSGQSPKLLMYWASTRESGVPDRFTGSGSGTDFTLTITNVQAEDLAVYYCKQSYILRTFGGGTKLEIK = 57.4

Input: Report EC50 (Jurkat-NFAT-luciferase activation) for ch133B4C7 (antibody, V domains shown) VH: QVQLQQPGTELVKPGASVKLSCKASGYTFTSYWMHWVKQRPGQGLEWIGNINPSNGDTNFNEKFKSKATLTVDKSSSTAYMQLSSLTSEDSAVYYCARDRSSQYYFDYWGQGTTLTVSS VL: DIVMSQSPSSLAVSAGEKVTMSCNSSQSLLNSRTRKNYLAWYQQKPGQSPKLLIYWASTRESGVPDRFTGSGSGTDFTLTISSVQAEDLAVYYCKQSYTLRTFGGGTKLEIK please.
Output: 28
